Hey, just so you know, these numbers are from patent US8889676B2.

# Tested on: S. pneumoniae ATCC 49619
# Measurement description: Minimal inhibitory concentration (MIC) by broth microdilution (CLSI M7-A7)
# Assay type: cell-based, Streptococcus pneumoniae
# Experimental parameters: Streptococcus pneumoniae, ATCC49619; cation-adjusted Mueller Hinton Broth supplemented with 3% (v/v) lysed horse blood; microdilution method
Endpoint: MIC (µg/mL)

INSERT INTO results (smi, assay_target, observed_measurement) VALUES
  ('CCNC(=O)Nc1cc2c(-c3ccncc3)ccc(CNC(=O)OCCCOC)c2cn1.Cl', 'S. pneumoniae ATCC 49619', 0.5);

I. CCNC(=O)Nc1cc2c(-c3ccncc3)ccc(CNC(=O)CCN)c2cn1.Cl
II. CCNC(=O)Nc1cc2c(-c3ccnc(OC)c3)ccc(CNC(=O)OCCOC)c2cn1
III. CCNC(=O)Nc1cc2c(-c3cc(F)ncc3C)ccc(CNC(=O)OC)c2cn1.Cl
Task for the reader: rank each entry by its MIC, from the minimum upward. Output the labels ranked as instructed.
II, III, I
(II: 1 µg/mL, III: 2 µg/mL, I: 8 µg/mL)

====

# Test system: S. pneumoniae ATCC 49619
# Measurement description: Minimal inhibitory concentration (MIC) by broth microdilution (CLSI M7-A7)
# Type: cell-based, Streptococcus pneumoniae
# Experimental parameters: Streptococcus pneumoniae, ATCC49619; cation-adjusted Mueller Hinton Broth supplemented with 3% (v/v) lysed horse blood; microdilution method
Endpoint: MIC (µg/mL)

Known MIC results, listed for orientation:
INSERT INTO measurements (smi, observed_measurement) VALUES
  ('CCNC(=O)Nc1cc2cccc(CNC(=O)COC)c2cn1', 4),
  ('CCNC(=O)Nc1cc2c(-c3ccncc3)ccc(CNC(=O)CCCOC)c2cn1', 0.5),
  ('CCNC(=O)Nc1cc2cccc(CNC(=O)OCc3cn[nH]c3)c2cn1.Cl', 2),
  ('CCNC(=O)Nc1cc2cccc(CNC(=O)c3cnn[nH]3)c2cn1', 1),
  ('CCNC(=O)Nc1cc2c(-c3ccnc(CC)c3)ccc(CNC(=O)OC)c2cn1', 1);

A. CCNC(=O)Nc1cc2c(-c3ccncc3F)ccc(CNC(=O)OC)c2cn1.Cl
B. CCNC(=O)Nc1cc2c(-c3ccnc(CC(=O)N(C)C)c3)ccc(CNC(=O)OC)c2cn1
C. CCNC(=O)Nc1cc2c(-c3ccncc3C)ccc(CNC(=O)OC)c2cn1.Cl
D. C#CCOC(=O)NCc1ccc(-c2ccc(C(=O)O)cc2)c2cc(NC(=O)NCC)ncc12.Cl
Exam item: list the entries in increasing order of MIC. Field: ranking. Enter the labels in the order requested.
D, A, C, B

====

# Tested on: S. pneumoniae ATCC 49619
# Measurement description: Minimal inhibitory concentration (MIC) by broth microdilution (CLSI M7-A7)
# Format: cell-based, Streptococcus pneumoniae
# Experimental parameters: Streptococcus pneumoniae, ATCC49619; cation-adjusted Mueller Hinton Broth supplemented with 3% (v/v) lysed horse blood; microdilution method
# Description: Minimal inhibitory concentrations (MICs; mg/l) were determined in cation-adjusted MuellerHinton Broth (supplemented with 3% (v/v) lysed horse blood for testing Streptococcus pneumoniae) by a microdilution method following the description given in “Methods for Dilution Antimicrobial Susceptibility Tests for Bacteria that Grow Aerobically”, Approved standard, 7th ed., a Clinical and Laboratory Standards Institute (CLSI) Document M7-A7, Wayne, Pa., USA, 2006.
Endpoint: MIC (µg/mL)

// solved cases for MIC follow
INSERT INTO measurements (smi, endpoint, observed_measurement) VALUES
  ('CCNC(=O)Nc1cc2c(-c3ccncc3C)ccc(CNC(=O)OCCOC)c2cn1', 'MIC', 1),
  ('CCNC(=O)Nc1cc2c(-c3ccnc(C)c3)ccc(CNC(C)=O)c2cn1', 'MIC', 1);

A. C#CCOC(=O)NCc1ccc(Cl)c2cc(NC(=O)NCC)ncc12
B. CCNC(=O)Nc1cc2c(-c3ccncc3)ccc(CNC(=O)CCC(=O)OC(C)(C)C)c2cn1
Please let me know which one, A or B , has a lower measured MIC value. Identify your pick by its label.
A

P. CCNC(=O)Nc1cc2c(-c3ccncc3)ccc(CNC(=O)OCCN3CCNC3=O)c2cn1.Cl
Q. CCNC(=O)Nc1cc2c(F)ccc(CNC(=O)OCCCN3CCOCC3)c2cn1
Field: entry with larger MIC (options P / Q ). Field: selected label. Fill in the label of the entry you choose.
P
